The following molecules are listed with their measured IC50 or % Inhibition Factor Xa (30 µM) values.
target: Human factor Xa (Homo sapiens)
Sequence (P00742 235-488 limits assumed): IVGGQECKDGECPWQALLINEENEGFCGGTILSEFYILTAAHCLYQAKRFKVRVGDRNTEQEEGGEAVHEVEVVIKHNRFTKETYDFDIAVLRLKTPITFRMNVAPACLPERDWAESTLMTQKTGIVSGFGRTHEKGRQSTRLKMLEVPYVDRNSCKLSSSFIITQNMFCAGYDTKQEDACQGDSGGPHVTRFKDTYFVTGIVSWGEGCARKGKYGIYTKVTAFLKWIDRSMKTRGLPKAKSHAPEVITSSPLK
Sequence (P00742 41-179 limits assumed): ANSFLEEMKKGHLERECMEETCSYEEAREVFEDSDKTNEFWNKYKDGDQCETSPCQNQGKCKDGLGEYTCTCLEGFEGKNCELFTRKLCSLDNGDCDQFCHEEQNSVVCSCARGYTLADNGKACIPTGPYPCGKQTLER
Value expressed in %; do not type the unit.

>  <structure.smiles.string>
CCc1c(Cl)nc(NCCc2cccc(Cl)c2)c(=O)n1CC(=O)NCc1ccc(C(=N)N)cc1

>  <study.target>
Human factor Xa (Homo sapiens)

>  <measure>
IC50 or % Inhibition Factor Xa (30 µM)

>  <result.unit>
%

>  <value>
0

$$$$

Input line: Fill in the blank: the reported IC50 or % Inhibition Factor Xa (30 µM) of C[Si](C)(C)CNc1nc(Cl)c(-c2ccccc2)n(CC(=O)NCc2ccc(C(=N)N)cc2)c1=O is ____.
Output line: 0

Input line: Fill in the blank: the reported IC50 or % Inhibition Factor Xa (30 µM) of COC(=O)c1cccc(-c2c(Cl)nc(NC(C)C)c(=O)n2CC(=O)NCc2ccc(C(=N)N)cc2)c1 is ____.
Output line: 19

Input line: Fill in the blank: the reported IC50 or % Inhibition Factor Xa (30 µM) of N=C(N)c1ccc(CNC(=O)Cn2c(-c3ccccc3)c(Cl)nc(NCc3ccncc3)c2=O)cc1 is ____.
Output line: 9

---

target: TF-VIIa (Homo sapiens, UniProt P08709); construct: 2nM recombinant human factor VIIa; purchased American Diagnostica, Greenwich CT; host or cells: soluble TF made in house in E. coli; assay: TF-VIIa Assay; type: biochemical; settings: 100 µM
Sequence (P08709 213-466 limits assumed): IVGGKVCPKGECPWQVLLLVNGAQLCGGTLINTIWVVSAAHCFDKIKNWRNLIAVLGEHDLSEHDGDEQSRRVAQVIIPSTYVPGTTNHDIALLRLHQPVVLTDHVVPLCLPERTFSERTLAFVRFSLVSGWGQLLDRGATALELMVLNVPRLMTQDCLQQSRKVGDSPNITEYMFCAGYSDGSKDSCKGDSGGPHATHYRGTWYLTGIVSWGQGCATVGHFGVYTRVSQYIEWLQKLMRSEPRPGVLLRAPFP
Sequence (P08709 61-212 limits assumed): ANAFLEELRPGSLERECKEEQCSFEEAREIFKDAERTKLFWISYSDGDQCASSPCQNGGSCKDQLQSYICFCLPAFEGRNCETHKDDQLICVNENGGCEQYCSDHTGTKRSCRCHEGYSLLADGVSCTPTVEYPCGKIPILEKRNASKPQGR
Sequence (P13726 33-251 partner limits assumed): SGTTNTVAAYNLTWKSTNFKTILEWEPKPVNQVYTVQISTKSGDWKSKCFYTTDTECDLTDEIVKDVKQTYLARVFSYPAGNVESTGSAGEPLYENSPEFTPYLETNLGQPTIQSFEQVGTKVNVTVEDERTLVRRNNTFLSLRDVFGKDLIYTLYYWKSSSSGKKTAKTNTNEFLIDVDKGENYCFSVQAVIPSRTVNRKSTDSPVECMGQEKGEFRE
The following compounds are listed with their measured % Inhibition TF-VIIa (100 µM) values.
Value expressed in %; do not type the unit.

Example entries and their recorded answers appear below.
>  <compound>
O=C(Cn1c(-c2cccc(Cl)c2)c(Cl)nc(NCCc2ccccc2)c1=O)NCCc1cccnc1 [Example E-0077]

>  <result.unit>
%

>  <% Inhibition TF-VIIa (100 µM)>
0

$$$$
>  <compound>
O=C(Cn1c(-c2ccc(Cl)cc2)c(Cl)nc(NCCc2ccc(Cl)cc2)c1=O)NCCc1ccncc1 [Example E-0020]

>  <result.unit>
%

>  <% Inhibition TF-VIIa (100 µM)>
0

$$$$
>  <compound>
O=C(Cn1c(-c2cccc(Cl)c2)c(Cl)nc(NCCc2ccc(Cl)cc2)c1=O)NCCc1cccnc1 [Example E-0095]

>  <result.unit>
%

>  <% Inhibition TF-VIIa (100 µM)>
2

$$$$

Input line: Fill in the blank: the reported % Inhibition TF-VIIa (100 µM) of O=C(Cn1c(-c2ccc(Cl)cc2)c(Cl)nc(NCCc2ccccc2)c1=O)NCCc1ccncc1 [Example E-0018] is ____.
Output line: 1

Input line: Fill in the blank: the reported % Inhibition TF-VIIa (100 µM) of O=C(Cn1c(-c2ccc(Cl)cc2)c(Cl)nc(NCc2ccncc2)c1=O)NCCc1ccncc1 [Example E-0024] is ____.
Output line: 0

Input line: Fill in the blank: the reported % Inhibition TF-VIIa (100 µM) of O=C(Cn1c(-c2cccc(Cl)c2)c(Cl)nc(NCCc2cccc(Cl)c2)c1=O)NCCc1cccnc1 [Example E-0092] is ____.
Output line: 1

Input line: Fill in the blank: the reported % Inhibition TF-VIIa (100 µM) of O=C(Cn1c(-c2ccc(Cl)cc2)c(Cl)nc(NCc2ccccc2)c1=O)NCCc1ccncc1 [Example E-0025] is ____.
Output line: 0

Input line: Fill in the blank: the reported % Inhibition TF-VIIa (100 µM) of COc1ccc(-c2c(Cl)nc(NCCc3cccc(Cl)c3)c(=O)n2CC(=O)NCCc2ccncc2)cc1 [Example E-0103] is ____.
Output line: 2

Input line: Fill in the blank: the reported % Inhibition TF-VIIa (100 µM) of O=C(Cn1c(-c2cccc(Cl)c2)c(Cl)nc(NCCc2ccc(Cl)cc2)c1=O)NCCc1ccncc1 [Example E-0094] is ____.
Output line: 2

Input line: Fill in the blank: the reported % Inhibition TF-VIIa (100 µM) of O=C(Cn1c(-c2ccc(-c3ccccc3)cc2)c(Cl)nc(NCc2ccccc2)c1=O)NCCc1ccncc1 [Example E-0049] is ____.
Output line: 2

Input line: Fill in the blank: the reported % Inhibition TF-VIIa (100 µM) of O=C(Cn1c(-c2cccc(Cl)c2)c(Cl)nc(NCCc2ccccc2)c1=O)NCCc1ccncc1 [Example E-0076] is ____.
Output line: 0

---

The following molecules are listed with their measured IC50 values.
biological target: TF-VIIa (Homo sapiens, UniProt P08709); construct: 2nM recombinant human factor VIIa; purchased American Diagnostica, Greenwich CT; host or cells: soluble TF made in house in E. coli; test: TF-VIIa Assay; type: biochemical; conditions: read-out: IC50 or % Inhibition TF-VIIa (30 µM); cells given as a plain number (IC50)
Returns: string containing the numeric result and its unit.

Example entries and their recorded answers appear below.
>  <molecule>
C[C@H](C(=O)NCc1ccc(C(=N)N)cc1)n1c(-c2ccccc2)c(Cl)nc(NCc2ccccc2)c1=O [1517-05]

>  <IC50>
4.6 µM

$$$$
>  <molecule>
CSCC(C(=O)NCc1ccc(C(=N)N)cc1)n1c(-c2ccccc2)c(Cl)nc(NC2CCC2)c1=O (stereo not drawn) [1517-10]

>  <IC50>
2 µM

$$$$
>  <molecule>
N=C(N)c1ccc(CNC(=O)Cn2c(-c3ccc4c(c3)OCO4)c(Cl)nc(NCCc3ccccc3)c2=O)cc1 [1471-47]

>  <IC50>
12.6 µM

$$$$

Input line: Fill in the blank: the reported IC50 of C=CCNc1nc(Cl)c(-c2cccc(N)c2)n(CC(=O)NCc2ccc(C(=N)N)cc2)c1=O [1526-19] is ____.
Output line: 0.04 µM

Input line: Fill in the blank: the reported IC50 of N=C(N)c1ccc(CNC(=O)Cn2c(-c3ccsc3)c(Cl)nc(NCc3ccccc3)c2=O)cc1 [1517-01] is ____.
Output line: 1.2 µM

Input line: Fill in the blank: the reported IC50 of C[C@@H](C(=O)NCc1ccc(C(=N)N)cc1)n1c(-c2ccccc2)c(Cl)nc(NCCc2ccccc2)c1=O [1517-15] is ____.
Output line: 3.1 µM

---

Listed here: compounds with reported IC50 or % Inhibition Factor Xa (30 µM) for Human factor Xa (Homo sapiens, UniProt P00742).
Value expressed in %; do not type the unit.

Example entries and their recorded answers appear below.
>  <compound>
CCCNc1nc(Cl)c(-c2cccc(N)c2)n(CC(=O)NCc2ccc(C(=N)N)cc2F)c1=O

>  <value>
8

$$$$
>  <compound>
N=C(N)c1ccc(CNC(=O)Cn2c(-c3ccccc3)c(Cl)nc(NC3CCc4ccccc43)c2=O)cc1 (centres unmarked)

>  <value>
9

$$$$
>  <compound>
CC(C)Nc1nc(Cl)c(-c2cccc(N)c2)n(CC(=O)NCCc2ccc(C(=N)N)cc2)c1=O

>  <value>
10

$$$$
>  <compound>
C[C@H](C(=O)NCc1ccc(C(=N)N)cc1)n1c(-c2ccccc2)c(Cl)nc(NC2CCC2)c1=O

>  <value>
0

$$$$
>  <compound>
Nc1n[nH]c2ccc(CNC(=O)Cn3c(-c4ccccc4)cnc(NCCc4ccccc4)c3=O)cc12

>  <value>
22

$$$$

Input line: Fill in the blank: the reported IC50 or % Inhibition Factor Xa (30 µM) of N=C(N)c1ccc(CNC(=O)Cn2c(-c3ccsc3)c(Cl)nc(NCCc3ccccc3)c2=O)cc1 is ____.
Output line: 0

Input line: Fill in the blank: the reported IC50 or % Inhibition Factor Xa (30 µM) of CCc1c(Cl)nc(NCCc2ccccc2)c(=O)n1CC(=O)NCc1ccc(C(=N)N)cc1 is ____.
Output line: 2

Input line: Fill in the blank: the reported IC50 or % Inhibition Factor Xa (30 µM) of COc1ccc(-c2c(Cl)nc(NCc3ccncc3)c(=O)n2CC(=O)NCc2ccc(C(=N)N)cc2)cc1 is ____.
Output line: 22

---

target: TF-VIIa (Homo sapiens); construct: 2nM recombinant human factor VIIa; purchased American Diagnostica, Greenwich CT; host or cells: soluble TF made in house in E. coli; test: TF-VIIa Assay; assay type: biochemical; settings: read-out: IC50 or % Inhibition TF-VIIa (30 µM); cells given as a plain number (IC50)
The following molecules are listed with their measured IC50 values.
Value expressed in µM; do not type the unit.

Example entries and their recorded answers appear below.
>  <molecule>
Cc1c(Cl)nc(NCCc2cccc(Cl)c2)c(=O)n1CC(=O)NCc1ccc(C(=N)N)cc1

>  <IC50, µM>
2.85

$$$$
>  <molecule>
Nc1n[nH]c2ccc(CNC(=O)Cn3c(-c4ccccc4)cnc(NCCc4ccccc4)c3=O)cc12

>  <IC50, µM>
0.9

$$$$
>  <molecule>
CC1CCCC(Nc2nc(Cl)c(-c3ccccc3)n(CC(=O)NCc3ccc(C(=N)N)cc3)c2=O)C1C (stereo not shown)

>  <IC50, µM>
14.6

$$$$

Query molecule follows.
Input line: Fill in the blank: the reported IC50 of Cc1c(Cl)nc(NCc2ccncc2)c(=O)n1CC(=O)NCc1ccc(C(=N)N)cc1 is ____.
Output line: 13.6
